Assay: chemical genetic growth profiling, strain panel (AID 1159580);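 also: tested at 20 µM; growth read once vehicle control cultures reached saturation at 30 °C; 1 = growth at the plate median or of vehicle wells; lower values mean less growth of the strain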
Conditions: S. cerevisiae deletion strains, growth OD, locus YGL167C, strain pmr1, stronger effect = lower value
In all, about 5,500 compounds went through this assay and about 2,000 (36%) were called active. Inconclusive results (about 18%) are left out. This is one part of the list.
The label is Y for normalized growth below 1 and N for normalized growth equal to or exceeding 1.

compound=NC1(C(=O)O)CC1 assigned_category=N
compound="NC(C(=O)O)C(O)C(=O)O (centres undefined)" assigned_category=Y
compound="Clc1ccc(CSC(Cn2ccnc2)c2ccc(Cl)cc2Cl)cc1 (centres undefined)" assigned_category=Y
compound=N[C@@H](C(=O)O)[C@@H](O)[C@H](O)[C@H](O)CO assigned_category=N
compound=Clc1ccc(CO/N=C(/Cn2ccnc2)c2ccc(Cl)cc2Cl)c(Cl)c1 assigned_category=Y
compound="Clc1ccc(COC(Cn2ccnc2)c2ccc(Cl)cc2Cl)cc1 (centres undefined)" assigned_category=Y
compound=COc1ccc2oc3ccccc3c(=O)c2c1 assigned_category=Y

---

Assay: chemical genetic growth profiling, strain panel (AID 1159580);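 also: tested at 20 µM; growth read once vehicle control cultures reached saturation at 30 °C; 1 = growth at the plate median or of vehicle wells; lower values mean less growth of the strain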
Conditions: S. cerevisiae deletion strains, growth OD, locus YCL069W, strain vba3
Out of some 5,500 compounds screened, about 2,000 (36%) were called active. Not shown: some 18% with an inconclusive outcome. Cut-off read from the data, not from the text of the source: active = normalized growth mostly below about 0.91 (no sharp cut-off); inconclusive = no clear call, values can overlap the other calls; inactive = mostly above about 0.92. The list shows a part of the results. Where a SMILES comes first, the peptide text is derived from it.
Labels: yes for active, no for inactive

molecule="CC(=O)Oc1c2c(c(CC=C(C)C)c3c1C(=O)C1=C[C@@H]4CC5C(C)(C)OC(C/C=C(\\C)C(=O)O)(C4=O)[C@@]15O3)OC(C)(CCC=C(C)C)C=C2 (stereo not given in full)" assigned_category=no
molecule=COc1ccc2oc3ccccc3c(=O)c2c1 assigned_category=yes
molecule="COC(=O)/C(C)=C\\CC12OC(C)(C)C3CC(C=C4C(=O)c5c(OC)c6c(c(CC=C(C)C)c5OC431)OC(C)(CCC=C(C)C)C=C6)C2=O (stereo not given)" assigned_category=no
molecule="Clc1ccc(C(c2ccccc2Cl)C(Cl)Cl)cc1 (stereo not given)" assigned_category=no
molecule="COc1ccc2nc(S(=O)Cc3ncc(C)c(OC)c3C)[nH]c2c1 (stereo not given)" assigned_category=no
molecule="O=c1cccc2n1CC1CC2CN2CCCC[C@@H]12 (stereo not given in full)" assigned_category=no
molecule=CCCn1c(=O)c2[nH]c(C3CCCC3)nc2n(CCC)c1=O assigned_category=no
molecule="NCC[C@@H](O)C(=O)N[C@@H]1C[C@H](N)[C@@H](O[C@H]2O[C@H](CN)[C@@H](O)[C@H](O)[C@H]2O)[C@H](O)[C@H]1O[C@H]1O[C@H](CO)[C@@H](O)[C@H](N)C1O (stereo not given in full)" assigned_category=no
molecule="C=NC(C(=O)NC1C(=O)N2C1SC(C)(C)C2C(=O)O)c1ccccc1 (stereo not given)" assigned_category=no
molecule=O=c1oc2ccccc2cc1O assigned_category=no
molecule=CC(=O)OC/C=C(\C)CC/C=C(\C)CC/C=C(\C)CC/C=C(\C)CC/C=C(\C)CC/C=C(\C)CC/C=C(\C)CC/C=C(\C)CCC=C(C)C assigned_category=no
molecule=C1N2CN3CN1CN(C2)C3 assigned_category=no
molecule=COc1ccc(-c2oc3cc(OC)c(OC)c(OC)c3c(=O)c2OC)cc1 assigned_category=no
molecule=NCCCCC(=O)O assigned_category=no
molecule="CC(=O)O[C@H]1C[C@@]2(C)[C@@H](C[C@@H](O)C3[C@]2(C)CC[C@H]2[C@H](C)[C@H](O)CC[C@]32C)/C1=C(/CCC=C(C)C)C(=O)O (stereo not given in full)" assigned_category=no
molecule="CC1(C)C(=O)[C@@H]2O[C@@H]2[C@@]2(C)C1C[C@@H](O)[C@]1(C)C2CC[C@@]2(C)[C@H](c3ccoc3)OC(=O)C3OC321 (stereo not given in full)" assigned_category=no
molecule="CC(=O)C1CC[C@H]2C3CC[C@H]4C[C@H](O)CC[C@]4(C)C3CC[C@]12C (stereo not given in full)" assigned_category=no
molecule="Clc1ccc(COC(Cn2ccnc2)c2ccc(Cl)cc2Cl)cc1 (stereo not given)" assigned_category=yes
molecule=Cc1cc(/C=C/c2ccc3cc(N(C)C)ccc3[n+]2C)c(C)n1-c1ccccc1 assigned_category=no
molecule="Clc1ccc(COC(Cn2ccnc2)c2ccc(Cl)cc2Cl)c(Cl)c1 (stereo not given)" assigned_category=yes
molecule=NC(N)=NCCCCN=C(N)N assigned_category=no
molecule="CN[C@@H]1C(OC2[C@H](O[C@H]3[C@H](O)[C@@H](O)[C@H](N=C(N)N)[C@@H](O)[C@@H]3N=C(N)N)OC(C)[C@]2(O)CO)OC(CO)C(O)C1O (stereo not given in full)" assigned_category=no
molecule="C[C@@H]1CC2C3CCC4=CC(=O)C=C[C@]4(C)[C@@]3(F)[C@@H](O)C[C@]2(C)[C@@]1(O)C(=O)CO (stereo not given in full)" assigned_category=no
molecule=NC(N)=NCCN1CCCCCCC1 assigned_category=no
molecule="C=C[C@@]1(C)CC(=O)[C@@]2(O)[C@](C)(O1)[C@@H](OC(C)=O)[C@@H](O)C1C(C)(C)CC[C@H](O)[C@@]12C (stereo not given in full)" assigned_category=no
molecule=COc1ccc(-c2oc3cc(OC)c(OC)c(OC)c3c(=O)c2OC)cc1OC assigned_category=no
molecule="Clc1ccc(CSC(Cn2ccnc2)c2ccc(Cl)cc2Cl)cc1 (stereo not given)" assigned_category=yes
molecule=CN1CCC[C@@H]1CCO[C@](C)(c1ccccc1)c1ccc(Cl)cc1 assigned_category=no
molecule="CC(=O)Oc1c2c(c3c(c1CC=C(C)C)O[C@]14C(=C[C@@H]5CC1C(C)(C)OC4(C/C=C(\\C)C(=O)O)C5=O)C3=O)OC(C)(CCC=C(C)C)C=C2 (stereo not given in full)" assigned_category=no
molecule=O=C(O)COc1ccc(Cl)cc1Cl assigned_category=no
molecule="CC(=O)O[C@H]1C[C@@H](OC(C)=O)C(C)(C)C2C[C@@H](OC(C)=O)[C@]3(C)C(CC[C@@]4(C)[C@H](c5ccoc5)OC(=O)[C@H]5O[C@]543)[C@]21C (stereo not given in full)" assigned_category=no
molecule="CC(=O)O[C@@H]1CC2C(C)(C)[C@@H](O)CC[C@]2(C)C2CC[C@@]3(C)[C@H](c4ccoc4)OC(=O)[C@H]4O[C@]43[C@@]21C (stereo not given in full)" assigned_category=no
molecule="CC(=O)N[C@@H](CC(=O)O)C(=O)N[C@@H](CCC(=O)O)C(=O)O (Ac-Asp-Glu-OH)" assigned_category=no
molecule=Clc1ccc(CO/N=C(/Cn2ccnc2)c2ccc(Cl)cc2Cl)c(Cl)c1 assigned_category=yes
molecule="CC(=O)O[C@H]1CC[C@@]2(C)C(C[C@@H](OC(C)=O)[C@]3(C)C2CC[C@@]2(C)[C@H](c4ccoc4)OC(=O)[C@H]4O[C@]423)C1(C)C (stereo not given in full)" assigned_category=no

---

Assay: chemical genetic growth profiling, strain panel (AID 1159580);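 also: tested at 20 µM; growth read once vehicle control cultures reached saturation at 30 °C; 1 = growth at the plate median or of vehicle wells; lower values mean less growth of the strain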
Settings: S. cerevisiae deletion strains, growth OD, locus YNL071W, strain lat1
Out of some 5,500 compounds screened, about 2,000 (36%) were called active. About 18% were inconclusive and are not listed. Rule as the data show it: active = normalized growth mostly below about 0.91 (no sharp cut-off); inconclusive = no clear call, values can overlap the other calls; inactive = mostly above about 0.92. The list shows a part of the results.
Labels: active, inactive

compound=O=c1oc2ccccc2cc1O assigned_category=inactive
compound="COC(=O)/C(C)=C\\CC12OC(C)(C)C3CC(C=C4C(=O)c5c(OC)c6c(c(CC=C(C)C)c5OC431)OC(C)(CCC=C(C)C)C=C6)C2=O (centres undefined)" assigned_category=inactive
compound=CN1CCC[C@@H]1CCO[C@](C)(c1ccccc1)c1ccc(Cl)cc1 assigned_category=active
compound="CC(=O)Oc1c2c(c(CC=C(C)C)c3c1C(=O)C1=C[C@@H]4CC5C(C)(C)OC(C/C=C(\\C)C(=O)O)(C4=O)[C@@]15O3)OC(C)(CCC=C(C)C)C=C2 (some centres undefined)" assigned_category=active

---

Assay: chemical genetic growth profiling, strain panel (AID 1159580);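 also: tested at 20 µM; growth read once vehicle control cultures reached saturation at 30 °C; 1 = growth at the plate median or of vehicle wells; lower values mean less growth of the strain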
Settings: S. cerevisiae deletion strains, growth OD, locus YGL167C, strain pmr1, stronger effect = lower value
Screen size: about 5,500 compounds; about 2,000 (36%) were called active. Roughly 18% stayed inconclusive and do not appear here. Some of the results follow.
The compounds listed here are annotated with their normalized growth.
readout kind: normalized growth

compound=NC(N)=NCCCCN=C(N)N experimental_value=1.01
compound="CC(=O)O[C@@H]1CC2C(C)(C)[C@H](O)CC[C@]2(C)C2CC[C@@]3(C)[C@H](c4ccoc4)OC(=O)C4OC43[C@@]21C (stereo not given in full)" experimental_value=1.01
compound="CC(=O)C1CCC2C3CCC4C[C@H](O)CCC4(C)C3C[C@H](O)C12C (stereo not given in full)" experimental_value=0.96
compound="COC(=O)/C(C)=C\\CC12OC(C)(C)C3CC(C=C4C(=O)c5c(OC)c6c(c(CC=C(C)C)c5OC431)OC(C)(CCC=C(C)C)C=C6)C2=O (stereo not given)" experimental_value=1.02
compound="CC(=O)Oc1c2c(c3c(c1CC=C(C)C)O[C@]14C(=C[C@@H]5CC1C(C)(C)OC4(C/C=C(\\C)C(=O)O)C5=O)C3=O)OC(C)(CCC=C(C)C)C=C2 (stereo not given in full)" experimental_value=0.973
compound=C=C1C(=O)[C@]23[C@H](O)[C@H]1CC[C@H]2[C@@]12CO[C@]3(O)[C@H](O)[C@@H]1C(C)(C)CC[C@@H]2O experimental_value=0.995
compound="CC(=O)O[C@H]1CC[C@@]2(C)C(C[C@@H](OC(C)=O)[C@]3(C)C2CC[C@@]2(C)[C@H](c4ccoc4)OC(=O)[C@H]4O[C@]423)C1(C)C (stereo not given in full)" experimental_value=0.994
compound="CC(=O)O[C@H]1C[C@@H](OC(C)=O)C(C)(C)C2C[C@@H](OC(C)=O)[C@]3(C)C(CC[C@@]4(C)[C@H](c5ccoc5)OC(=O)[C@H]5O[C@]543)[C@]21C (stereo not given in full)" experimental_value=0.987
compound="CC1(C)C(=O)[C@@H]2O[C@@H]2[C@@]2(C)C1C[C@@H](O)[C@]1(C)C2CC[C@@]2(C)[C@H](c3ccoc3)OC(=O)C3OC321 (stereo not given in full)" experimental_value=1.01
compound="CCC(C)C(=O)c1c(O)c(C)c2oc3c(C)c(O)c(C(=O)C(C)CC)c(O)c3c2c1O (stereo not given)" experimental_value=1
compound=CC(=O)OC/C=C(\C)CC/C=C(\C)CC/C=C(\C)CC/C=C(\C)CC/C=C(\C)CC/C=C(\C)CC/C=C(\C)CC/C=C(\C)CCC=C(C)C experimental_value=0.981
compound="C=CCS(=O)C[C@H](N)C(=O)O (stereo not given in full)" experimental_value=0.997
compound="CC(=O)O[C@H]1C[C@@H](OC(C)=O)C(C)(C)C2C[C@@H](O)[C@]3(C)C(CC[C@@]4(C)[C@H](c5ccoc5)OC(=O)[C@H]5O[C@]543)[C@]21C (stereo not given in full)" experimental_value=1
compound=Cc1onc(-c2ccccc2)c1-c1ccc(S(N)(=O)=O)cc1 experimental_value=1.02
compound="CC(C)=CC1C(C(=O)OCc2cccc(Oc3ccccc3)c2)C1(C)C (stereo not given)" experimental_value=1.02
